Assay: COS7 lysate on small-molecule microarray, probe aHis, 635 nm (AID 1123);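 further: z-score combines 667nm fluorescence intensity with signal-to-noise per printed compound spot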
Details: COS7 cell lysate, fluorescence, higher = more signal

[
  {
    "compound": "CC(C)=CCCC(C)=CCON=C1C[C@@H](O)[C@@H](O)[C@@H]2[C@@H]3C(=O)N(c4cccc(Oc5ccccc5)c4)C(=O)[C@@H]3CC[C@H]12",
    "composite z-score": 1.23
  },
  {
    "compound": "COC(=O)[C@H](C)NC(=O)CCC1CC(OC(=O)NCc2cccc3ccccc23)CC2(CCCC(COC(=O)NCCOc3ccccc3)O2)O1 (some centres undefined)",
    "composite z-score": 1.17
  },
  {
    "compound": "CC(CCN1CCCCc2nc(C)c(C)cc21)=NO[C@@H](C)c1cc(-c2c(C)cc(C)cc2C)no1",
    "composite z-score": -0.257
  },
  {
    "compound": "CON=C(C)CCC(=O)OC[C@H]1O[C@H](C#Cc2ccccc2)C=C[C@@H]1Oc1ccc(C)cc1",
    "composite z-score": 0.661
  }
]
